Below: a set of entries, each annotated with reported IC50.
# Target system: Mannose-6-phosphate isomerase (Homo sapiens)
# Sequence (P34949 whole entry): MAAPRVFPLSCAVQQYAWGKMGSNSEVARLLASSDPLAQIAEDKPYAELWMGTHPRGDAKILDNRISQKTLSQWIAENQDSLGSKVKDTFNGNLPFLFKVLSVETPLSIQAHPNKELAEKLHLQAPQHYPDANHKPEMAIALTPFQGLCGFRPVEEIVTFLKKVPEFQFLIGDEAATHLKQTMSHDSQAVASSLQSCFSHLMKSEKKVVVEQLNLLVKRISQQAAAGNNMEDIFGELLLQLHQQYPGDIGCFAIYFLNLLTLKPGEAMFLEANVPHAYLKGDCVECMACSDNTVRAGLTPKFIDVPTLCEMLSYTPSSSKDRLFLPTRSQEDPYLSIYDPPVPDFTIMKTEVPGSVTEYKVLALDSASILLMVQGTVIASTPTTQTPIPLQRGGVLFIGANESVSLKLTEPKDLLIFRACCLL
# Method summary: MPI inhibition at elevated mannose 6-phosphate – biochemical, fluorescence intensity, high mannose 6-phosphate, primary screen (AID 1220)
Active and inactive are the calls of the source. Rule as the data show it: actives have a measured IC50 and inactives only a lower limit.

Previously resolved entries follow.
Substance smiles: Cc1cccc(-c2csc(N)c2C(=O)OC(C)C)c1
Target system: Mannose-6-phosphate isomerase (Homo sapiens)
Endpoint: IC50
Obs value: > 50 µM (not active)
//
Substance smiles: O=C(Cc1csc(N2CCOCC2)n1)N/N=C/c1ccc(O)c(O)c1O
Target system: Mannose-6-phosphate isomerase (Homo sapiens)
Endpoint: IC50
Obs value: 8.94 µM (active)
//
Substance smiles: CN(C)c1cc(N/N=C\c2ccccc2)nc(N(C)C)n1
Target system: Mannose-6-phosphate isomerase (Homo sapiens)
Endpoint: IC50
Obs value: > 50 µM (not active)
//
Substance smiles: COc1cc2c(cc1OC)C1=C(C#N)CN(CC(=O)O)CN1CC2
Target system: Mannose-6-phosphate isomerase (Homo sapiens)
Endpoint: IC50
Obs value: 34.1 µM (active)
//
Substance smiles: c1ccc(-c2cc(N3CCCCCC3)n[nH]2)cc1
Target system: Mannose-6-phosphate isomerase (Homo sapiens)
Endpoint: IC50
Obs value: > 50 µM (not active)

Entry `C/C(=N\O)C(=O)C(CN1CCCCC1)CN1CCCCC1` , IC50 reported as > 50 µM (not active)

Entry `C=CCN1C(=O)/C(=C/c2cc(C)n(-c3cccnc3)c2C)C(=O)NC1=S` , IC50 reported as > 50 µM (not active)

Entry `COc1ccc(N(C)C(=S)Nc2ccc3nc(C)c(C)nc3c2)cc1` , IC50 reported as > 50 µM (not active)

Entry `Cc1ccc(NC(=S)Nc2cccc3cnccc23)cc1` , IC50 reported as > 50 µM (not active)

Entry `Fc1cccc(Cl)c1CNc1ccc(N2CCCC2)cc1` , IC50 reported as 30.5 µM (active)
